The values you see were collected from the supplement of paper PMC9170038.

- Test system: MS2 coat protein
- measurement_description: apparent KD of MS2 coat protein, switch ON state; designed switch direction (-1 OFF switch, 1 ON switch): -1; higher = weaker reporter binding
- conditions_used: FMN input: 0 or 200 uM; Eterna round: R93 (includes R88 designs)
measurement_kind: apparent KD of MS2 coat protein (nM)
Report only the number, with the unit nM understood.

Solved entries:
polymer_sequence	apparent KD of MS2 coat protein (nM)
AAGAAGUGAGGAUAUACAAAAUAAAAGAAAAGAAAGAAAGAACAUGAGGAUCACCCAUGUAGAAGGUACAAGAA [Khakheperre Senusret II]	29
AGAAAACAUGAGGAUCACCCAUGUCAGGAUAUACAAAAUAAAAUAAAAAUAAAAUAAAGUAGAAGGGACAAAGA [Mat - Same state - Mayanna Mod - D109]	33.5
AUAAACAGAGGAUAUACGCAAAUAAAAGAAAAUAAAGAAACACAUGAGGAUCACCCAUGUAGAAGGCUGGAAAA	21.1
AGUUGGCGAGGAUAUACAUGAGGAUCACCCAUGUGAGAGUAAAGAGUGAGAAAGAGAAGUAGAAGGCGCUGACA [Ruby 56]	81.1
AACAGUACAGGAUAUACAUGAGGAUCACCCAUGUAGAGAGAAUAAAACAAAAAUAAAUGUAGAAGGGUACUGGA [Moding Maslow revisited (73) 23]	25.6

Now consider the entry below.
Exam item: Name the recorded apparent KD of MS2 coat protein for AAAAAGAGAGGAUAUACAUGAGGAUCACCCAUGUGACACAAAAUAAAUAAAAUAAAGUGUAGAAGGCUCAAAAA [65%, Moding Exclusion3-cac2, 20] .
Marked response: 23.8

---

Recorded apparent KD of MS2 coat protein for the following sequences
- Test system: MS2 coat protein
- measurement_description: apparent KD of MS2 coat protein; designed switch direction (-1 OFF switch, 1 ON switch): 1; higher = weaker reporter binding
- conditions_used: input ligand: none
Report only the number, with the unit µM understood.

polymer_sequence	apparent KD of MS2 coat protein, µM
GCUCGAAUCAGAACCAACAUGAGGAUCACCCAUGUGUGUUGGUAGGAUAUCGUUUCUAAGAGAAACGAGAAGGGCCGAACGAGC [SameState NG3 #6] (Eterna round: R96, puzzle: Same State NG 3)	0.0757
GUGGUCUGACAUGAGGAUCACCCAUGUGGAAUAAAUACGGGUCAGGAUAUCUUGAGGAUCACCCAAGAGAAGGGACGGAUUGUU (Eterna round: R96, puzzle: Same State NG 3)	0.0351
GCGAGCGUACUUGCAGACAUGAGGAUCACCCAUGUAACUGGGUAGGAUAUGGUACCGUUUCGGUACCAGAAGGACUUAUGAAAG [JL SSNG3 1.50] (Eterna round: R96, puzzle: Same State NG 3)	0.0544
GUAGCAUACCGAGGAUAUUCAUAUAAUAAUAACAUGAGGAUCACCCAUGUAAGGCGAAAGCCUUGGGAGAAGGCGGAAUGCUAC [Xeonanis - 20 Mod60] (Eterna round: R96, puzzle: Same State NG 2)	0.0636
GCGAGCGUACUUGCAGACAUGAGGAUCACCCAUGUAACUGGACAGGAUAUGGUACCGUUUCGGUACCAGAAGGGUCCAUAUGUC [JL SSNG3 3.54] (Eterna round: R96, puzzle: Same State NG 3)	0.13
GUUACAUGAGGAUCACCCAUGUAUGUGUGGGAGUAAGUGUCUUAGGAUAUCUAUUAUUUGAAUUAAGAGAAGGAAGAUUGUUGU [JMF's solution 21] (Eterna round: R96, puzzle: Same State NG 3)	0.103

Exam item: Name the recorded apparent KD of MS2 coat protein for GUGCGGGUAAGAGGAUAUACAAAUUCUCGUUCUGAGACGAGAACAUGAGGAUCACCCAUGUCUAAGUAGAAGGUUUCAGGCACC [Eternabot solution 28] (Eterna round: R96, puzzle: Same State NG 2) .
Marked response: 0.023

Exam item: Name the recorded apparent KD of MS2 coat protein for GGAAACAAGAGAGGAUAUGCAGAGGAUCACCCUGCAGAAGGCUCAAAAGAGAGGAUAUGCAGAGGAUCACCCUGCAGAAGGCUC [pwkr ssNG DX.27] (Eterna round: R96, puzzle: Same State NG 1) .
Marked response: 0.0214

Exam item: Name the recorded apparent KD of MS2 coat protein for AAAAGAAACGCAGGAUAUGCACAUGAGGAUCACCCAUGUCCCACGGGCUCGACCGAGCCUGUGAAGCAGAAGGGUGUAAGAAAA [Erleusor] (Eterna round: R96, puzzle: Same State NG 2) .
Marked response: 0.0747
